Values compiled from patent US8552002B2.

Molecular target: FGFR3 (K650E) (Homo sapiens, UniProt P22607, K650E)
Construct: amino acids 411-806 of the cytoplasmic domain of human FGFR-3, N-terminally fused to GST; made in house; host or cells: Sf9 insect cells (baculovirus)
Sequence (P22607 411-806 K650E): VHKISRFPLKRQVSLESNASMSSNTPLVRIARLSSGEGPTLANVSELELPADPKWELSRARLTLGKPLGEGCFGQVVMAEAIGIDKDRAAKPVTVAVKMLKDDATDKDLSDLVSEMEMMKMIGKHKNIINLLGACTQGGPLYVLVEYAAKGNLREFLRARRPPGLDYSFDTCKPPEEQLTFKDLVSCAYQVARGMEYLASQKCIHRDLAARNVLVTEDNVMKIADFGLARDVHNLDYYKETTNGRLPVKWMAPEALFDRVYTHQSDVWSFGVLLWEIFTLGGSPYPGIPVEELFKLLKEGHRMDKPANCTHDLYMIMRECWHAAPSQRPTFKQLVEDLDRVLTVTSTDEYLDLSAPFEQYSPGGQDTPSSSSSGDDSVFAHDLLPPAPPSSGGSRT
Assay: Recombinant GST-FGFR-3-K650E tyrosine kinase assay (33P into poly(Glu,Tyr))
Type: biochemical
Settings: 10 μM; Examples 171 to 206; read-out: FGFR3 inhibition at 10 μM
Quick reference for inhibition at 10 µM among some molecules

# example entries with known answers
Record Cc1ccc(NC(=O)c2cccc(C(F)(F)F)c2)cc1NC(=O)N(C)c1cc(Nc2ccc(OCCN3CCN(C)CC3)cc2)ncn1 . Reported inhibition at 10 µM: 56 to 98%

Record Cc1ccc(NC(=O)c2cccc(C(F)(F)F)c2)cc1NC(=O)Nc1cc(Nc2cccc(OCCN3CCOCC3)c2)ncn1 . Reported inhibition at 10 µM: 56 to 98%

Record COC(=O)Nc1cc(N(C)C(=O)Nc2cc(C(=O)Nc3ccc(CN4CCN(C)CC4)c(C(F)(F)F)c3)ccc2C)ncn1 . Reported inhibition at 10 µM: 56 to 98%

More entries:
Record Cc1ccc(NC(=O)c2cccc(C(F)(F)F)c2)cc1NC(=O)Nc1cc(Nc2cccc(OCCN(C)C)c2)ncn1 . Reported inhibition at 10 µM: 56 to 98%

Record COc1ccc(NC(=O)c2cccc(C(F)(F)F)c2)cc1NC(=O)N(C)c1cc(Nc2ccc(N3CCN(C)CC3)cc2)ncn1 . Reported inhibition at 10 µM: 56 to 98%

Record Cc1ccc(NC(=O)c2cccc(C(F)(F)F)c2)cc1NC(=O)Nc1cc(Nc2ccccc2)ncn1 . Reported inhibition at 10 µM: 56 to 98%

Record COC(=O)Nc1cc(N(C)C(=O)Nc2cc(NC(=O)c3ccc(CN4CCN(C)CC4)c(C(F)(F)F)c3)ccc2C)ncn1 . Reported inhibition at 10 µM: 56 to 98%

Record CCN(CC)CCOc1ccc(Nc2cc(N(C)C(=O)Nc3cc(NC(=O)c4cccc(C(F)(F)F)c4)ccc3C)ncn2)cc1 . Reported inhibition at 10 µM: 56 to 98%

Record CC(=O)Nc1cc(N(C)C(=O)Nc2cc(NC(=O)c3ccc(CN4CCN(C)CC4)c(C(F)(F)F)c3)ccc2C)ncn1 . Reported inhibition at 10 µM: 56 to 98%

Record Cc1ccc(NC(=O)c2cccc(C(F)(F)F)c2)cc1NC(=O)N(CCc1ccccn1)c1cc(Nc2ccc(N3CCN(C)CC3)cc2)ncn1 . Reported inhibition at 10 µM: 56 to 98%

Record Cc1ccc(NC(=O)c2cccc(C(F)(F)F)c2)cc1NC(=O)N(C)c1cc(Nc2cccc(N3CCN(C)CC3)c2)ncn1 . Reported inhibition at 10 µM: 56 to 98%

Record COc1cc(NC(=O)c2ccc(CN3CCN(C)CC3)c(C(F)(F)F)c2)cc(NC(=O)N(C)c2cc(Nc3ccccc3)ncn2)c1 . Reported inhibition at 10 µM: 56 to 98%

Record COc1cc(NC(=O)c2ccc(C)c(C(F)(F)F)c2)cc(NC(=O)N(C)c2cc(Nc3ccc(N4CCN(C)CC4)cc3)ncn2)c1 . Reported inhibition at 10 µM: 56 to 98%

Record Cc1ccc(NC(=O)c2cccc(C(F)(F)F)c2)cc1NC(=O)Nc1cc(Nc2ccc(OCCCN(C)C)cc2)ncn1 . Reported inhibition at 10 µM: 56 to 98%

---

Quick reference for melting point among some compounds

Record CN1CCN(c2ccc(Nc3cc(NC(=O)Nc4ccc(Cl)c(Cl)c4)ncn3)cc2)CC1 . Reported melting point: 260 to 262 °C

Record CC(C)Nc1cc(NC(=O)Nc2c(Cl)cccc2Cl)ncn1 . Reported melting point: 203 to 204 °C

Record CN1CCC(COc2cccc(Nc3cc(NC(=O)Nc4c(Cl)cc(Cl)cc4Cl)ncn3)c2)CC1 . Reported melting point: 222 to 225 °C

Record Cc1ccc(NC(=O)c2ccc(CN3CCN(C)CC3)c(C(F)(F)F)c2)cc1NC(=O)N(C)c1cc(N)ncn1 . Reported melting point: 191.5 to 193 °C

---

Quick reference for inhibition at 10 µM among some molecules
Molecular target: UniProtKB P00519
Assay: Inhibitory activity against c-Abl (Example 207)
Type: biochemical
Conditions: Examples 171 to 206

# example entries with known answers
Hey, UniProtKB P00519 data for Cc1ccc(NC(=O)c2ccc(CN3CCN(C)CC3)c(C(F)(F)F)c2)cc1NC(=O)N(C)c1cc(Nc2ccccc2)ncn1 : inhibition at 10 µM came out at 79 to 100%

Hey, UniProtKB P00519 data for Cc1ccc(NC(=O)c2cccc(C(F)(F)F)c2)cc1NC(=O)N(C)c1cc(Nc2ccc(N3CCN(C)CC3)cc2)ncn1 : inhibition at 10 µM came out at 79 to 100%

Hey, UniProtKB P00519 data for COC(=O)Nc1cc(N(C)C(=O)Nc2cc(NC(=O)c3ccc(CN4CCN(C)CC4)c(C(F)(F)F)c3)ccc2C)ncn1 : inhibition at 10 µM came out at 79 to 100%

More entries:
Hey, UniProtKB P00519 data for COc1cc(NC(=O)c2ccc(CN3CCN(C)CC3)c(C(F)(F)F)c2)cc(NC(=O)N(C)c2cc(Nc3ccccc3)ncn2)c1 : inhibition at 10 µM came out at 79 to 100%

Hey, UniProtKB P00519 data for COc1ccc(NC(=O)c2cccc(C(F)(F)F)c2)cc1NC(=O)N(C)c1cc(Nc2ccc(N3CCN(C)CC3)cc2)ncn1 : inhibition at 10 µM came out at 79 to 100%

Hey, UniProtKB P00519 data for Cc1ccc(C(=O)Nc2cccc(C(F)(F)F)c2)cc1NC(=O)N(C)c1cc(Nc2ccc(N3CCN(C)CC3)cc2)ncn1 : inhibition at 10 µM came out at 79 to 100%

Hey, UniProtKB P00519 data for Cc1ccc(NC(=O)c2cccc(C(F)(F)F)c2)cc1NC(=O)Nc1cc(Nc2cccc(N3CCN(C)CC3)c2)ncn1 : inhibition at 10 µM came out at 79 to 100%

---

Biological target: wild type Bcr-abl (Homo sapiens, UniProt P00519)
Construct: the major C-terminal part (exons 2-11) of the c-abl gene; the other entry of the earlier key: BCR (P11274, Breakpoint cluster region protein)
Sequence (P00519 with tags, fused parts or gaps): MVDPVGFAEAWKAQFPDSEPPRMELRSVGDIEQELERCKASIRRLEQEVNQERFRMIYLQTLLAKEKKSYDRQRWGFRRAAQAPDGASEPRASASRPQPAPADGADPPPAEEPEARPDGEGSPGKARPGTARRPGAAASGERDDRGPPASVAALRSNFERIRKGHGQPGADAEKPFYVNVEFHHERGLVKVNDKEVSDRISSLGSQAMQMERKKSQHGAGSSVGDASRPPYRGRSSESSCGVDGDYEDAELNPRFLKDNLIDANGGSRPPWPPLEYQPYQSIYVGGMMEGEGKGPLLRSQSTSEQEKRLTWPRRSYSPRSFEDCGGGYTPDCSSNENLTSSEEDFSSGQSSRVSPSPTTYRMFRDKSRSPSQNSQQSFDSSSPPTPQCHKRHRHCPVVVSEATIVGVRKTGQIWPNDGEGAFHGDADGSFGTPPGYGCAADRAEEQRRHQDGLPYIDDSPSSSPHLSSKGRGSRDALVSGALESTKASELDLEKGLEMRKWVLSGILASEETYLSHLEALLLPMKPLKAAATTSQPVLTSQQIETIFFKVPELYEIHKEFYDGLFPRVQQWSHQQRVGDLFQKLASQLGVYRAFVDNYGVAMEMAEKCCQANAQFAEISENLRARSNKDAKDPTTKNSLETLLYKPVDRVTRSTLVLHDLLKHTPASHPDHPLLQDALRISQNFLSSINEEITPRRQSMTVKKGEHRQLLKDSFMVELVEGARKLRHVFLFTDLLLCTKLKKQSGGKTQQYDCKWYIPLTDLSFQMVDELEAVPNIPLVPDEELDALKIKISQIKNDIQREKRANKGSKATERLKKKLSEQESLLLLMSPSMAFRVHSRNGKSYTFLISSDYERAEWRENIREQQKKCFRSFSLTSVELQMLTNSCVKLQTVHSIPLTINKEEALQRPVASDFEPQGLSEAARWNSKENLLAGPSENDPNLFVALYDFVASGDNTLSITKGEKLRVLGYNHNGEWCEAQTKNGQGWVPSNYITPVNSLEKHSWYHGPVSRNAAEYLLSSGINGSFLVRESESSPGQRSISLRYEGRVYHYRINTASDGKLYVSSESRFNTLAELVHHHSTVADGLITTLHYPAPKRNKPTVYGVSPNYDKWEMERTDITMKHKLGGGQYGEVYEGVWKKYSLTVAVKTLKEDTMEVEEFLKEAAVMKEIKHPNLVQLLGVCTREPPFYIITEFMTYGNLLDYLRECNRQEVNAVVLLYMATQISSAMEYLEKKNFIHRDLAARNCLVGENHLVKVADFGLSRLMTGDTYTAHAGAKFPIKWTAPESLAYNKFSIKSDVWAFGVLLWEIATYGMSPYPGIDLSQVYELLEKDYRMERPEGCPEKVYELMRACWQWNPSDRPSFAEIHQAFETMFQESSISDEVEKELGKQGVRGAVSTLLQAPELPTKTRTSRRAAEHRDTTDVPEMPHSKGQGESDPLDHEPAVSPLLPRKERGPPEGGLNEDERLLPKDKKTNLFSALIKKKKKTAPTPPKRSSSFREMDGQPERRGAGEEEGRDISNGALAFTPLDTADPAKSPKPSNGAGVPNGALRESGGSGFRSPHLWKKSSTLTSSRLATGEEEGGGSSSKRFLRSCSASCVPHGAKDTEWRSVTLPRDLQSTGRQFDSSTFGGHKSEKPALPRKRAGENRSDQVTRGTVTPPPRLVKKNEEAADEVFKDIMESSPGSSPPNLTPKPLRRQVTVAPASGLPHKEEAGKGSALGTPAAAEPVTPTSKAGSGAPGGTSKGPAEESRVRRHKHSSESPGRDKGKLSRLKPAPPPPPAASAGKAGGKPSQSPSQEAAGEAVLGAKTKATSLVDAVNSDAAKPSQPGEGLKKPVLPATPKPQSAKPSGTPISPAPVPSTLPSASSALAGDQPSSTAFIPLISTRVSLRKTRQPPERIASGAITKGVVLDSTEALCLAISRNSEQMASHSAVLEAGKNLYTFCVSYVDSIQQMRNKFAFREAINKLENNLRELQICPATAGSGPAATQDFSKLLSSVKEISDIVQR
Assay: Antiproliferative effect on cells expressing wild type Bcr-abl
Details: cell proliferation
pIC50: −log10 of the molar value.
Assay Readout: pIC50

Hey, wild type Bcr-abl (Homo sapiens, UniProt P00519) data for Cc1ccc(NC(=O)c2cccc(C(F)(F)F)c2)cc1NC(=O)N(CCN1CCOCC1)c1cc(N)ncn1 [Example 214] : pIC50 came out at 7.83

Hey, wild type Bcr-abl (Homo sapiens, UniProt P00519) data for Cc1ccc(NC(=O)c2cccc(C(F)(F)F)c2)cc1NC(=O)N(CCCN1CCCC1=O)c1cc(N)ncn1 [Example 215] : pIC50 came out at 8.00

---

Quick reference for inhibition at 10 µM among some compounds
Biological target: FGFR3 (K650E) (Homo sapiens, UniProt P22607, K650E)
Construct: amino acids 411-806 of the cytoplasmic domain of human FGFR-3, N-terminally fused to GST; made in house; host or cells: Sf9 insect cells (baculovirus)
Assay: Recombinant GST-FGFR-3-K650E tyrosine kinase assay (33P into poly(Glu,Tyr))
Assay type: biochemical
Settings: 10 μM; Examples 1 to 169; read-out: FGFR3 (K650E) inhibition at 10 μM

# example entries with known answers
Record COc1ccc(NC(=O)Nc2cc(Nc3cccc(N4CCN(C)CC4)c3)ncn2)cc1OC [Example 31] . Reported inhibition at 10 µM: 27 to 100%

Record COc1cc(NC(=O)Nc2cc(Nc3ccc(N4CCN(C)CC4)cc3)ncn2)cc(OC)c1OC [Example 14] . Reported inhibition at 10 µM: 27 to 100%

Record CN1CCN(C(=O)c2ccc(Nc3cc(NC(=O)Nc4c(Cl)cc(Cl)cc4Cl)ncn3)cc2)CC1 [Example 85] . Reported inhibition at 10 µM: 27 to 100%

Record CN1CCN(c2cccc(Nc3cc(NC(=O)Nc4c(Cl)cccc4Cl)ncn3)c2)CC1 [Example 5] . Reported inhibition at 10 µM: 27 to 100%

Record COc1ccc(OC)c(NC(=O)Nc2cc(Nc3cccc(N4CCN(C)CC4)c3)ncn2)c1 [Example 13] . Reported inhibition at 10 µM: 27 to 100%

Note: attention shifts to another entry.
Record CN(C(=O)Nc1c(Cl)cccc1Cl)c1cc(Nc2ccc(F)cc2)ncn1 [Example 123] . Reported inhibition at 10 µM: 27 to 100%

---

Quick reference for melting point among some compounds

# example entries with known answers
Record Cc1ccc(NC(=O)c2cccc(C(F)(F)F)c2)cc1NC(=O)N(C)c1cc(Nc2ccc(N3CCN(C)CC3)cc2)ncn1 . Reported melting point: 189.5 to 191 °C

Record O=C(Nc1cc(N[C@H]2CC[C@H](OC(=O)Nc3c(Cl)cccc3Cl)CC2)ncn1)Nc1c(Cl)cccc1Cl . Reported melting point: 222 to 224 °C

Record CN1CCN(c2ccc(Nc3cc(NC(=O)Nc4cccc(Cl)c4Cl)ncn3)cc2)CC1 . Reported melting point: 279 to 281 °C

More entries:
Record Cc1cccc(Cl)c1NC(=O)Nc1cc(Nc2ccc(OCC3CCN(C)CC3)cc2)ncn1 . Reported melting point: 178 to 180 °C
